Ref: patent US9873690B2

test_target: hTDO2 (Homo sapiens, UniProt P48775)
Construct: endogenous in cells
Sequence (P48775 whole entry): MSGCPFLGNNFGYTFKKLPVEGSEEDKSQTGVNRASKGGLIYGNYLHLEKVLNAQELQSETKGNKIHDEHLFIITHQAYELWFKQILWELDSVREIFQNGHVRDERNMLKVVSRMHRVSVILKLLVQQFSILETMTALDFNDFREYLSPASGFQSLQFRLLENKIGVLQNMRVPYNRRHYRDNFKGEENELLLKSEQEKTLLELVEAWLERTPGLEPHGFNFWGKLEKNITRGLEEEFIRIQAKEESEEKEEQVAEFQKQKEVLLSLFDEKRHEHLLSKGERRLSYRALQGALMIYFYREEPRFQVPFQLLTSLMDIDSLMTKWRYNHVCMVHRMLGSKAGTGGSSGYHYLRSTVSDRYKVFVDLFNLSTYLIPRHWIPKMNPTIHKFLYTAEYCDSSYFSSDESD
protocol_details: Cellular assay for TDO2 activity determination in A172 cells
protocol_conditions: human glioblastoma A172 cells naturally expressing hTDO2; overnight incubation; kynurenine by absorbance at 480 nm
pIC50: −log10 of the molar value.
value_kind: pIC50

## Input Give its pIC50 value. Item: CNC(=O)CN1C(CO)c2cc(-c3c[nH]c4cc(F)ccc34)ccc2S1(=O)=O (single isomer, unassigned; (-)) [Example 127]
## Output 7.06

## Input Give its pIC50 value. Item: CNC(=O)CN1C(C)c2cc(-c3c[nH]c4cc(F)ccc34)ccc2S1(=O)=O (single isomer, unassigned; (+)) [Example 112]
## Output 6.85

## Input Give its pIC50 value. Item: CNC(=O)CCN1Cc2cc(-c3c[nH]c4cc(F)ccc34)ccc2S1(=O)=O
## Output 6.87

## Input Give its pIC50 value. Item: CNC(=O)C(O)CN1C(C)c2cc(-c3c[nH]c4cc(F)ccc34)ccc2S1(=O)=O (single isomer, unassigned; (-)) [Example 98]
## Output 6.94

## Input Give its pIC50 value. Item: O=S1(=O)c2ccc(-c3c[nH]c4cc(F)ccc34)cc2CN1C[C@H](O)CO
## Output 6.99

====

test_target: hTDO2 (Homo sapiens, UniProt P48775)
Construct: endogenous in cells
protocol_details: Cellular assay for TDO2 activity determination in A172 cells
protocol_conditions: human glioblastoma A172 cells naturally expressing hTDO2; overnight incubation; kynurenine by absorbance at 480 nm
pIC50: −log10 of the molar value.
value_kind: pIC50

## Input Give its pIC50 value. Item: CC(=O)N1CCC(N2C(C)c3cc(-c4c[nH]c5cc(F)ccc45)ccc3S2(=O)=O)CC1 (single isomer, unassigned; (-)) [Example 72]
## Output 7.19

## Input Give its pIC50 value. Item: CC1c2cc(-c3c[nH]c4cc(F)ccc34)ccc2S(=O)(=O)N1C[C@H](O)CO (single isomer, unassigned) [Example 95]
## Output 6.94

## Input Give its pIC50 value. Item: CC1c2cc(-c3c[nH]c4cc(F)ccc34)ccc2S(=O)(=O)N1Cc1ncn(C)n1 (single isomer, unassigned; (+)) [Example 86]
## Output 7.01

====

test_target: hTDO2 (Homo sapiens)
Construct: endogenous in cells
protocol_details: Cellular assay for TDO2 activity determination in A172 cells
protocol_conditions: human glioblastoma A172 cells naturally expressing hTDO2; overnight incubation; kynurenine by absorbance at 480 nm
pIC50: −log10 of the molar value.
value_kind: pIC50

## Input Give its pIC50 value. Item: CC(=O)N(C)CC1NS(=O)(=O)c2ccc(-c3c[nH]c4cc(F)ccc34)cc21 (single isomer, unassigned; (-)) [Example 28]
## Output 6.30

## Input Give its pIC50 value. Item: CC1c2cc(-c3c[nH]c4cc(F)ccc34)ccc2S(=O)(=O)N1CCN1CCOC1=O (single isomer, unassigned; (+)) [Example 69]
## Output 6.58

## Input Give its pIC50 value. Item: CC1c2cc(-c3c[nH]c4cc(F)ccc34)ccc2S(=O)(=O)N1CC1(C)COC(=O)N1 (single isomer, unassigned) [Example 87]
## Output 6.50

## Input Give its pIC50 value. Item: NC(=O)CCN1Cc2cc(-c3c[nH]c4cc(F)ccc34)ccc2S1(=O)=O
## Output 6.59

a. CN(C)CCN1Cc2cc(-c3c[nH]c4cc(F)ccc34)ccc2S1(=O)=O
b. CS(=O)(=O)NCC1NS(=O)(=O)c2ccc(-c3c[nH]c4cc(F)ccc34)cc21 (single isomer, unassigned; (-)) [Example 139]
c. O=S1(=O)NC(CCO)c2cc(-c3c[nH]c4cc(F)ccc34)ccc21 (single isomer, unassigned; (+)) [Example 30]
## Input Which order do these items take when sorted by rising pIC50? List them. Please express your ranking as an ordered list of the labels.
## Output b, a, c
